Values were extracted from patent US20230110188A1.

Target: T1, Human MuSK (R&D Systems, cat. 10189-MK, histidine tag) (human, UniProt O15146 24-495)
T1 construct: Bought protein; also called human monomeric MuSK-6xhis; not shown: histidine tag (6xhis)
T1 sequence: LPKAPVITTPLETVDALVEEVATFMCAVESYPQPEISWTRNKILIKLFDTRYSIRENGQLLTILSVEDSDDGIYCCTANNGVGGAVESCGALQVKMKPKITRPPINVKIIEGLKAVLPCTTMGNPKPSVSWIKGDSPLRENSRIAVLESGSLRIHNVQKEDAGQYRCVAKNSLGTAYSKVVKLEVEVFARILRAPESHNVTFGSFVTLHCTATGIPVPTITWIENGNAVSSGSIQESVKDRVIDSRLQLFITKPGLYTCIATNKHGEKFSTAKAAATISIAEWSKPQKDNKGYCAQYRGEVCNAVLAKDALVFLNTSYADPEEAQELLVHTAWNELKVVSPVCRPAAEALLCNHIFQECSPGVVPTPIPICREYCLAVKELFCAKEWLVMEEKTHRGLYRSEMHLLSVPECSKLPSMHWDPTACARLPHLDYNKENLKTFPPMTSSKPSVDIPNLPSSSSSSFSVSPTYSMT
Test: SPR (Biacore), MuSK-coated chip presaturated with 500 nM 3F6c (competitor)
Please provide measured amplitude of prelead after presaturating MuSK (RU) for the entries that follow.
Answers are plain numbers, in RU.

{"columns": ["binder", "assay.value"],
 "data": [
  ["3B5 (antibody, V domains shown, also called 3B5wt) VH: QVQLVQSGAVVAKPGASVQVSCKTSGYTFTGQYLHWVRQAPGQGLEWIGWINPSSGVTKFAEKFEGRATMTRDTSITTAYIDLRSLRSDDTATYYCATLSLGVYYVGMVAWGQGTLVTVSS VL: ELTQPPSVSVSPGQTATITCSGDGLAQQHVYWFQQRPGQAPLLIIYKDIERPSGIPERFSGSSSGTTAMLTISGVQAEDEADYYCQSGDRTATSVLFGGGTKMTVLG", 2230],
  ["4D3 (antibody, human IgG1, kappa, L234A L235A, V domains shown) VH: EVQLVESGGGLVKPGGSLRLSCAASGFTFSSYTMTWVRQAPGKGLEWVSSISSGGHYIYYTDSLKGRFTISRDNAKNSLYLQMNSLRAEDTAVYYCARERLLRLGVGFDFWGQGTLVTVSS VL: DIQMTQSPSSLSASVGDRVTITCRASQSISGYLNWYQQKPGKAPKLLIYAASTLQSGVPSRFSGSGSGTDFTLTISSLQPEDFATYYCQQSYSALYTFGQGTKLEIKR", 68],
  ["3F6c (antibody, human IgG1, kappa, L234A L235A, V domains shown) VH: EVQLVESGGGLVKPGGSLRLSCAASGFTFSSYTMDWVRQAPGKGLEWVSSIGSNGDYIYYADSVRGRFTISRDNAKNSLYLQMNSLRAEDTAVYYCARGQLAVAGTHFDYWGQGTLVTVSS VL: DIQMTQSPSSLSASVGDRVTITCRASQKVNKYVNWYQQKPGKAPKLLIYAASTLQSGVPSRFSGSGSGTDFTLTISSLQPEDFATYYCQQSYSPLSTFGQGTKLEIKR", 64],
  ["3D10a (antibody, human IgG1, kappa, L234A L235A, V domains shown) VH: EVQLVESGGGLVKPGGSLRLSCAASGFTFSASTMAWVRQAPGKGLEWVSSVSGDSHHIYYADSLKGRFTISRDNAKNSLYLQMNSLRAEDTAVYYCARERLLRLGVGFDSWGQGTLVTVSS VL: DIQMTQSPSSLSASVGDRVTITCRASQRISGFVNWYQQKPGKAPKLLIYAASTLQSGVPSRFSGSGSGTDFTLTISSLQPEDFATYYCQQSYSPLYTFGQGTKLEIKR", 75]
]}

Switching to the query record.
Task: State the recorded amplitude of prelead after presaturating MuSK (RU) for this entry: 3D9b (antibody, human IgG1, kappa, L234A L235A, V domains shown) VH: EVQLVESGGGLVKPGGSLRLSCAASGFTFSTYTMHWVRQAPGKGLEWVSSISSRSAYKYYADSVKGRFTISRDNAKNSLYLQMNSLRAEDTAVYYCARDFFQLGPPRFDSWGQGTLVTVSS VL: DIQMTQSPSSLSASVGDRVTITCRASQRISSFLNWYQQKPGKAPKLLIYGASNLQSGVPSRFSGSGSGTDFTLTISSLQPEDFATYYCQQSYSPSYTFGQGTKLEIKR
Output: 191
